Reported % activity values are given for each entry in this list.
# assayed-target: cKit(D816V)(h) (Homo sapiens, UniProt P10721, D816V)
# protocol: Kinase Profiling Assay
# Format: biochemical
# setup-conditions: 100 μM
readout-name: % activity (%)

residue-sequence	value-measured
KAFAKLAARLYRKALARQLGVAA [MMI-0400]	35
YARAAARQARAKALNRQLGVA [MMI-0200]	118
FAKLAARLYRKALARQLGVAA [MMI-0300]	60
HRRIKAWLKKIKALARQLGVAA [MMI-0500]	30

* * *

# assayed-target: STK33(h) (Homo sapiens, UniProt Q9BYT3)
# Sequence (Q9BYT3 whole entry): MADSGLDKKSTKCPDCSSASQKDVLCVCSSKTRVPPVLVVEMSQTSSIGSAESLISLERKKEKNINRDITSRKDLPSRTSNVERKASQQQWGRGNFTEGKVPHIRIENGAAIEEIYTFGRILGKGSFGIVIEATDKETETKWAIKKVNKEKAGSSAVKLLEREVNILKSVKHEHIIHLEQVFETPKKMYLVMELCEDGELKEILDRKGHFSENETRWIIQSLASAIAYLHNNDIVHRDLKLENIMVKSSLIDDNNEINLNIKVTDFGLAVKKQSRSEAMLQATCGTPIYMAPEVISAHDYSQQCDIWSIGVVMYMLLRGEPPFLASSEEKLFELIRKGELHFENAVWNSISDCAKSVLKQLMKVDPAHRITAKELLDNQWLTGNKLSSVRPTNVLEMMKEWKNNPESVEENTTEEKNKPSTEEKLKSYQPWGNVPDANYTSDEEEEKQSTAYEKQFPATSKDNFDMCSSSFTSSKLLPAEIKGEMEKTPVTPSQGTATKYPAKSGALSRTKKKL
# protocol: Kinase Profiling Assay
# Type: biochemical
# setup-conditions: 100 μM
Reported % activity values are given for each entry in this list.
readout-name: % activity (%)

residue-sequence	units-text	value-measured
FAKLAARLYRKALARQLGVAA [MMI-0300]	%	45
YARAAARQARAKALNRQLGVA [MMI-0200]	%	98
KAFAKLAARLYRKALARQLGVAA [MMI-0400]	%	52
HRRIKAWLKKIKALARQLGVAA [MMI-0500]	%	16

* * *

# assayed-target: GSK3β(h) (Homo sapiens)
# Sequence (P49841 whole entry): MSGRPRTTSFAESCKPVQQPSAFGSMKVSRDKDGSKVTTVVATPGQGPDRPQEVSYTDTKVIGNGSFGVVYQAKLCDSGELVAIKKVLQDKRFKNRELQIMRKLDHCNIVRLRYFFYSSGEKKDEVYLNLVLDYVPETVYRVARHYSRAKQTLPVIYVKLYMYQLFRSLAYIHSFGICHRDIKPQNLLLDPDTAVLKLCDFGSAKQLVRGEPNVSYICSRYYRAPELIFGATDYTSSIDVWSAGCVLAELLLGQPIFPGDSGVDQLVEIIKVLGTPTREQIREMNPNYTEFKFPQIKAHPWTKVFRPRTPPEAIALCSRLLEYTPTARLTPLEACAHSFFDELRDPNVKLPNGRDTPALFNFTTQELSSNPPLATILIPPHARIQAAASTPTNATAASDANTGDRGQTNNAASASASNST
# protocol: Kinase Profiling Assay
# Format: biochemical
# setup-conditions: 100 μM

residue-sequence	assayed-target	% activity, %
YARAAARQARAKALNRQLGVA [MMI-0200]	GSK3β(h) (Homo sapiens)	132
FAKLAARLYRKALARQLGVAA [MMI-0300]	GSK3β(h) (Homo sapiens)	205
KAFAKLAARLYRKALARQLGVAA [MMI-0400]	GSK3β(h) (Homo sapiens)	202
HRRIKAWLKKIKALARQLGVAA [MMI-0500]	GSK3β(h) (Homo sapiens)	238

* * *

# assayed-target: PASK(h) (Homo sapiens, UniProt Q96RG2)
# Sequence (Q96RG2 whole entry): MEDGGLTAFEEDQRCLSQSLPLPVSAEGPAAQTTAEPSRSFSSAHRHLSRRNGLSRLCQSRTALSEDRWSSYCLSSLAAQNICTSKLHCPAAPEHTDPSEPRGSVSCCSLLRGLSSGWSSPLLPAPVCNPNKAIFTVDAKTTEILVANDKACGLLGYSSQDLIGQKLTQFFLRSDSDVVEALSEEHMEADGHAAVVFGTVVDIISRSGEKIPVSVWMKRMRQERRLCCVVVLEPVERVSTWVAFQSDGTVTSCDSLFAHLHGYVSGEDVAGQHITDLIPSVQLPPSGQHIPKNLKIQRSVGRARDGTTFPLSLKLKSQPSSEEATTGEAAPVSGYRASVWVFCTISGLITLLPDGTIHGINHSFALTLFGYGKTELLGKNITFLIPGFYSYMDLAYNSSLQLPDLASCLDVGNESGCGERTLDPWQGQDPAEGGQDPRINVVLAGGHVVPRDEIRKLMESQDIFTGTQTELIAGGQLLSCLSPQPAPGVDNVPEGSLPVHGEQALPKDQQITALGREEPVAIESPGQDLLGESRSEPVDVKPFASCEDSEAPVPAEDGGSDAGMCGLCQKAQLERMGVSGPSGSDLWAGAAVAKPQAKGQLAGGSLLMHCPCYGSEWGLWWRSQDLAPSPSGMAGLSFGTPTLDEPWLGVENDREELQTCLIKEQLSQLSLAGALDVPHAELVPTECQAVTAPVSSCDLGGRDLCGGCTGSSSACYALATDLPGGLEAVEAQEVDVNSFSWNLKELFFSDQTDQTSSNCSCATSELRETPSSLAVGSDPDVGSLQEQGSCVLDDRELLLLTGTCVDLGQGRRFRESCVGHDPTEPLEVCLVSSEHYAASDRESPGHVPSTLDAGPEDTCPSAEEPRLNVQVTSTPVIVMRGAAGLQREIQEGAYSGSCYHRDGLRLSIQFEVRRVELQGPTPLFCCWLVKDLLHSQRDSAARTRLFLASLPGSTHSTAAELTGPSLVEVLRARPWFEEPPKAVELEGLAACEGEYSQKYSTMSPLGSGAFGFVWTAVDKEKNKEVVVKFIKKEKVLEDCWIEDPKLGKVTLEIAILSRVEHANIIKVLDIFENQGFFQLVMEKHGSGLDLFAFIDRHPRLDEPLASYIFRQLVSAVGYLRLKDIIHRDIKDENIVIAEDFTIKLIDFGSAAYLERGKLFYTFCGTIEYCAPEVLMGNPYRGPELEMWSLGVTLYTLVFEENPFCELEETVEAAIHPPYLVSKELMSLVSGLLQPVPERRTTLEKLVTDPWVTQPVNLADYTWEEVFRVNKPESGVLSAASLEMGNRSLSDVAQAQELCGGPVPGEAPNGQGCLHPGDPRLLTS
# protocol: Kinase Profiling Assay
# Format: biochemical
# setup-conditions: 100 μM
readout-name: % activity (%)

residue-sequence	units-text	value-measured
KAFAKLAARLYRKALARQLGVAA [MMI-0400]	%	28
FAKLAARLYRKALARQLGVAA [MMI-0300]	%	29
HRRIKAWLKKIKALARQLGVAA [MMI-0500]	%	9
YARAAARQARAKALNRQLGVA [MMI-0200]	%	60

* * *

# assayed-target: IGF-1R(h), activated (Homo sapiens, UniProt P08069)
# protocol: Kinase Profiling Assay
# Assay type: biochemical
# setup-conditions: 100 μM
readout-name: % activity (%)

residue-sequence	value-measured
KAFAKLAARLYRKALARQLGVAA [MMI-0400]	77
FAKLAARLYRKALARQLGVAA [MMI-0300]	80
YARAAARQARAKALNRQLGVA [MMI-0200]	94
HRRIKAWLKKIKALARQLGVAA [MMI-0500]	45

* * *

# assayed-target: Fyn(h) (Homo sapiens)
# Sequence (P06241 whole entry): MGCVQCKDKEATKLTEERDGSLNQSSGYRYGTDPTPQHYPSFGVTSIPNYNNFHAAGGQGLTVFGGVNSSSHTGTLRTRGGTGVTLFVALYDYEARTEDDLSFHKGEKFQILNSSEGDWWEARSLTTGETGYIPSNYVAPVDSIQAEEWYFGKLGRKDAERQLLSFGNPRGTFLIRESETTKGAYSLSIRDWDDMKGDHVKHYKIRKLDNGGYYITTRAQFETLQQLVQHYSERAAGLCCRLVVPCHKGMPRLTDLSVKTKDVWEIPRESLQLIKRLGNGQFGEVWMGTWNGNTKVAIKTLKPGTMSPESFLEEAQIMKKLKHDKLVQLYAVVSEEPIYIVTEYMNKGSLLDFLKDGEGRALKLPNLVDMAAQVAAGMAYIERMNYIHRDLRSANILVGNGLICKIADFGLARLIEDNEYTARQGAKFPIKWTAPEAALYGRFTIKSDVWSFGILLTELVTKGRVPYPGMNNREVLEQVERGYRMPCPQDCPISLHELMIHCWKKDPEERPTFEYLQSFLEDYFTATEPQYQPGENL
# protocol: Kinase Profiling Assay
# Assay type: biochemical
# setup-conditions: 100 μM
Reported % activity values are given for each entry in this list.
readout-name: % activity (%)

residue-sequence	units-text	value-measured
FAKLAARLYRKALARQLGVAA [MMI-0300]	%	74
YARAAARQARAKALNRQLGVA [MMI-0200]	%	75
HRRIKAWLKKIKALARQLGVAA [MMI-0500]	%	83
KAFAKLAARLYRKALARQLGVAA [MMI-0400]	%	54
